# Tested on: Guinea Pig Ileal Longitudinal Muscle (GPI), mu opioid receptor
# assay_summary: cells
# Type: cell-based
# conditions_used: Cavia porcellus; read-out: GPI Agonism IC50
observable: IC50 (µM)
Return type: number; implicit unit µM.

Entry O=C1[C@@H]2Oc3c(O)ccc4c3[C@@]23CCN(CC2CC2)[C@H](C4)[C@]3(O)CC12Cc1cc3ccccc3cc1C2 [Compound 3d, 7-(5',6'-Benz-2'-spiroindano)naltrexone] , system Guinea Pig Ileal Longitudinal Muscle (GPI), mu opioid receptor: what IC50 was measured?
0.253
